# Test system: T47D
# MEASUREMENT_DESCRIPTION: Microculture tetrazolium assay
# Type: cell-based
# DETAILS: Homo sapiens, read-out: IC50
pIC50: −log10 of the molar value. Structures can show the parent of a compound that is named as a salt.
READOUT_LABEL: pIC50

compound="CC(=O)CC1CC2=C(C(=O)c3cc4ccccc4c(O)c3C2=O)C(O[C@H]2C[C@H](N)[C@H](O)[C@H](C)O2)O1 (mixture of isomers) [BCH-2111, hydrochloride]" measurement_target=T47D readout_label=pIC50 numeric_value=5.62
compound="CCCCCC1Cc2c(O)c3c(c(O)c2C(O[C@H]2C[C@H](N)[C@H](O)[C@H](C)O2)O1)C(=O)c1ccccc1C3=O (stereo partly drawn) [BCH-2089]" measurement_target=T47D readout_label=pIC50 numeric_value=6.70
compound="CC(=O)OCC1(C2CC3=C(C(=O)c4c(cc5ccccc5c4O)C3=O)C(O[C@H]3C[C@H](NC(=O)C(F)(F)F)[C@H](O)[C@H](C)O3)O2)OCCCO1 (stereo partly drawn) [BCH-748]" measurement_target=T47D readout_label=pIC50 numeric_value=5.11
compound="COC(=O)C1CC2=C(CS1)C(=O)c1cc3ccccc3c(O)c1C2=O (stereo not drawn) [BCH-1149]" measurement_target=T47D readout_label=pIC50 numeric_value=4.41
compound="CC(=NO)[C@H]1Cc2c(O)c3c(c(O)c2[C@H](O[C@H]2C[C@H](N)[C@H](O)[C@H](C)O2)O1)C(=O)c1ccccc1C3=O [BCH-2074, hydrochloride]" measurement_target=T47D readout_label=pIC50 numeric_value=6.16
compound="C[C@@H]1O[C@@H](O[C@@H]2O[C@@H](C(=O)CO)CC3=C2C(=O)c2cc4ccccc4c(O)c2C3=O)C[C@H](NC(=O)C(F)(F)F)[C@@H]1O [BCH-1182]" measurement_target=T47D readout_label=pIC50 numeric_value=4.55
compound="COC(=O)[C@@H]1CC2=C(C(=O)c3cc4ccccc4cc3C2=O)[C@@H](O[C@H]2C[C@H](NC(=O)C(F)(F)F)[C@H](O)[C@H](C)O2)O1 [BCH-671]" measurement_target=T47D readout_label=pIC50 numeric_value=5.54
compound="C[C@@H]1O[C@@H](O[C@@H]2O[C@@H](C(C)(F)F)CC3=C2C(=O)c2cc4ccccc4c(O)c2C3=O)C[C@H](O)[C@@H]1O (mixture of isomers) [BCH-1663]" measurement_target=T47D readout_label=pIC50 numeric_value=4.32
compound="CC[C@H]1CO[C@H](O[C@H]2C[C@H](N)[C@H](O)[C@H](C)O2)c2c(O)c3c(c(O)c21)C(=O)c1ccccc1C3=O (mixture of isomers) [BCH-2085]" measurement_target=T47D readout_label=pIC50 numeric_value=5.80
compound="CC(=O)C1CC2=C(CS1)C(=O)c1c(cc3ccccc3c1O)C2=O (stereo not drawn) [BCH-1152]" measurement_target=T47D readout_label=pIC50 numeric_value=4.00
compound="C[C@@H]1O[C@@H](O[C@H]2O[C@H](S(=O)(=O)c3ccccc3)CC3=C2C(=O)c2cc4ccccc4c(O)c2C3=O)C[C@H](NC(=O)C(F)(F)F)[C@@H]1O [BCH-2025]" measurement_target=T47D readout_label=pIC50 numeric_value=5.48
compound="COCOCC(=O)C1CC2=C(C(=O)c3cc4ccccc4c(O)c3C2=O)C(O[C@H]2C[C@H](NC(=O)C(F)(F)F)[C@H](OC(=O)c3ccc([N+](=O)[O-])cc3)[C@H](C)O2)O1 (stereo partly drawn) [BCH-732]" measurement_target=T47D readout_label=pIC50 numeric_value=4.00
